Tested on: IL-17A-induced G-CSF production in human normal keratinocyte (NHK)
assay.explanation: NHK assay: IL-17A-induced G-CSF production in normal human keratinocytes
Assay type: cell-based
applied.conditions: Homo sapiens, Keratinocyte, 24 h, IL-17A 5 ng/mL, G-CSF by HTRF, average if tested more than once
Catalogue of IC50 readings, one per entry.
measurement.label: IC50

molecule | result
CC(C)(CC[C@H](NC(=O)c1nonc1C1CC1)c1cn2ncc(CN3CC(F)(F)CNC3=O)cc2n1)C(F)(F)F | < 50 nM
Cc1nonc1C(=O)N[C@@H](CCC(C)(C)C(F)(F)F)c1cn2ncc(CN3CC(F)(F)CNC3=O)cc2n1 | 50 to 100 nM
O=C(N[C@H](c1cn2ncc(CN3CCCCNC3=O)cc2n1)C1CCC(F)(F)CC1)c1nonc1C1CC1 | > 100 nM
COC[C@H](c1cnn2cc([C@@H](NC(=O)c3nonc3OC)C3CCC(F)(F)CC3)nc2c1)N1CC(F)(F)CNC1=O | < 50 nM
[2H]C1([2H])NC(=O)N([C@H](COC)c2cnn3cc([C@H](CCC(C)(C)C(F)(F)F)NC(=O)c4ncnn4C(C)C)nc3c2)C([2H])([2H])C1(F)F | 50 to 100 nM
CC(C)(CC[C@H](NC(=O)c1nonc1C1CC1)c1cn2ncc(CN3C[C@H]4[C@@H](CNC3=O)C4(F)F)cc2n1)C(F)(F)F (relative stereo) | < 50 nM

---

System: IL-17A-induced G-CSF production in human normal keratinocyte (NHK)
assay.explanation: NHK assay: IL-17A-induced G-CSF production in normal human keratinocytes
Format: cell-based
applied.conditions: Homo sapiens, Keratinocyte, 24 h, IL-17A 5 ng/mL, G-CSF by HTRF, average if tested more than once
Procedure: IL-17A acts directly on keratinocytes through binding to dimeric receptor IL-17RA/RC and drives the production of a number of inflammatory mediators known to be elevated in psoriasis lesional tissue. IL-17A small molecule inhibitors that block the IL-17A to interact with IL-17R would inhibit the IL-17A signaling in its targeted cells such as keratinocytes. The compound functional activity is evaluated for its impact on IL-17A-induced G-CSF production in human normal keratinocyte (NHK). […]
// reported IC50 for each item listed
measurement.label: IC50

compound | result
COC[C@H](c1cnn2cc([C@H](CCC(C)(C)C(F)(F)F)NC(=O)c3ncnn3C(C)C)nc2c1)N1CC(F)(F)CNC1=O [Example 111] | < 0.05 µM
O=C(N[C@H](c1cn2ncc([C@@H](C(F)F)N3CC(F)(F)CNC3=O)cc2n1)C1CCC(F)(F)CC1)c1nonc1C1CC1 [Example 89] | < 0.05 µM
COC[C@H](c1cnn2cc([C@@H](NC(=O)c3nonc3C3CC3)[C@H](C)OC3(C(F)(F)F)CC3)nc2c1)N1CC(F)(F)CNC1=O (relative stereo) [Example 91] | > 0.1 µM
[2H]C([2H])([2H])C([2H])([2H])n1nccc1C(=O)N[C@H](c1cn2ncc([C@@H](C3CC3)N3CC(F)(F)CNC3=O)cc2n1)C1CCC(F)(F)CC1 [Example 9] | < 0.05 µM
[2H]C1([2H])NC(=O)N([C@H](COC2CC2)c2cnn3cc([C@@H](NC(=O)c4nonc4C(F)F)C4CCC(F)(F)CC4)nc3c2)C([2H])([2H])C1(F)F [Example 82] | < 0.05 µM
O=C(N[C@H](c1cn2ncc(CN3CC(F)(F)CNC3=O)cc2n1)C1CCC(F)(F)CC1)c1cnn(CCC(F)(F)F)n1 [Example 27] | > 0.1 µM
COC[C@H](c1cnn2cc(C(CCC(C)(C)C(F)(F)F)NC(=O)c3nonc3C3CC3)nc2c1)N1CC(F)(F)CNC1=O (single isomer, unassigned) [Example 46] | < 0.05 µM
COC[C@H](c1cnn2cc([C@@H](CCC(C)(C)C(F)(F)F)NC(=O)c3nonc3C)nc2c1)N1CC(F)(F)CNC1=O [Example 67] | > 0.1 µM
COC[C@H](c1cnn2cc([C@@H](NC(=O)c3nonc3C3CC3)C(C3CC3)C3CC3)nc2c1)N1CC(F)(F)CNC1=O [Example 103] | < 0.05 µM

---

measurement.target: IL-17A(FLAG-Tagged): IL-17RA(His-Tagged) binding (Homo sapiens, UniProt Q16552, K93Q)
Sequence (Q16552 with tags, fused parts or gaps K93Q): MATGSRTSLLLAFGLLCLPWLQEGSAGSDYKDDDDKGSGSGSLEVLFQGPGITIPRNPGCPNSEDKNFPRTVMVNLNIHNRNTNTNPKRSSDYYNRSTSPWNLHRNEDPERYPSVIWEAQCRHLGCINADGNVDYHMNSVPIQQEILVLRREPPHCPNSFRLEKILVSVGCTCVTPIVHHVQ
assay.explanation: IL-17A(FLAG-tagged):IL-17RA(His-tagged) binding disruption Eu-HTRF assay, Protocol 2
applied.conditions: FLAG-IL-17A 1 nM; average if tested more than once
Listing: IC50 of selected compounds

compound | IC50
COC[C@H](c1cnn2cc([C@@H](NC(=O)c3nonc3C(C)(F)F)C3CCC(F)(F)CC3)nc2c1)N1CC(F)(F)CNC1=O | < 50 nM
COc1nonc1C(=O)N[C@@H](CCC(C)(C)C(F)(F)F)c1cn2ncc(CN3C[C@@H]4[C@H](CNC3=O)C4(F)F)cc2n1 (relative stereo) | 50 to 100 nM
O=C(N[C@H](c1cn2ncc([C@@H](C(F)F)N3CC(F)(F)CNC3=O)cc2n1)C1CCC(F)(F)CC1)c1nonc1C1CC1 | < 50 nM

---

measurement.target: IL-17A(FLAG-Tagged): IL-17RA(His-Tagged) binding (Homo sapiens, UniProt Q16552, K93Q)
assay.explanation: IL-17A(FLAG-tagged):IL-17RA(His-tagged) binding disruption Eu-HTRF assay, Protocol 2
applied.conditions: FLAG-IL-17A 1 nM; average if tested more than once
pIC50: −log10 of the molar value.
measurement.label: pIC50

compound | measurement.label | result
COC[C@H](c1cnn2cc(C(NC(=O)c3nonc3C)C3C[C@H]4CC[C@H]4C3)nc2c1)N1CC(F)(F)CNC1=O (single isomer, unassigned) [Example 132] | pIC50 | > 7.30
COc1nonc1C(=O)N[C@H](c1cn2ncc([C@@H](COC3CC3)N3CC(F)(F)CNC3=O)cc2n1)C1CCC(F)(F)CC1 [Example 77] | pIC50 | > 7.30
[2H]C1([2H])NC(=O)N([C@H](COC2CC2)c2cnn3cc([C@@H](NC(=O)c4nonc4C)C4CCC(F)(F)CC4)nc3c2)C([2H])([2H])C1(F)F (single isomer, unassigned) [Example 40] | pIC50 | > 7.30

---

measurement.target: IL-17A(FLAG-Tagged): IL-17RA(His-Tagged) binding (Homo sapiens, UniProt Q16552, K93Q)
assay.explanation: IL-17A(FLAG-tagged):IL-17RA(His-tagged) binding disruption Eu-HTRF assay, Protocol 1
applied.conditions: FLAG-IL-17A 2.5 nM; average if tested more than once

molecule | IC50
CC(C)n1nccc1C(=O)N[C@H](c1cn2ncc(CN3CC(F)(F)CNC3=O)cc2n1)C1CCC(F)(F)CC1 | > 100 nM
CC(C)n1nccc1C(=O)N[C@H](c1cn2ncc(CN3CC(C)(C)CNC3=O)cc2n1)C1CCC(F)(F)CC1 | > 100 nM
CC1CNC(=O)N(Cc2cnn3cc([C@@H](NC(=O)c4nonc4C4CC4)C4CCC(F)(F)CC4)nc3c2)C1 (single isomer, unassigned) [Example 28] | < 50 nM
COC[C@H](c1cnn2cc([C@@H](NC(=O)c3ccnn3C(C)C)C3CCC(F)(F)CC3)nc2c1)N1CC(F)(F)CNC1=O | 50 to 100 nM
Cc1nonc1C(=O)N[C@H](c1cn2ncc(C(C)N3CC(F)(F)CNC3=O)cc2n1)C1CCC(F)(F)CC1 (single isomer, unassigned) | > 100 nM
CC1CCCN(Cc2cnn3cc([C@@H](NC(=O)c4nonc4C4CC4)C4CCC(F)(F)CC4)nc3c2)C(=O)N1 (single isomer, unassigned) [Example 96] | < 50 nM
[2H]C([2H])([2H])C([2H])([2H])n1nccc1C(=O)N[C@H](c1cn2ncc([C@@H](C3CC3)N3CC(F)(F)CNC3=O)cc2n1)C1CCC(F)(F)CC1 | < 50 nM
CC(C)n1nccc1C(=O)N[C@H](c1cn2ncc(CN3CCCNC3=O)cc2n1)C1CCC(F)(F)CC1 | > 100 nM
O=C(N[C@H](c1cn2ncc(CN3CC(F)(F)C(F)(F)CNC3=O)cc2n1)C1CCC(F)(F)CC1)c1nonc1C1CC1 | < 50 nM
O=C(N[C@H](c1cn2ncc(CN3CC(F)(F)CNC3=O)cc2n1)C1CCC(F)(F)CC1)c1nonc1OCC(F)F | < 50 nM
Cc1nonc1C(=O)N[C@H](c1cn2ncc([C@@H](COC3CC3)N3CC(F)(F)CNC3=O)cc2n1)C1CCC(F)(F)CC1 | < 50 nM
CC1CCCN(Cc2cnn3cc([C@@H](NC(=O)c4ccnn4C(C)C)C4CCC(F)(F)CC4)nc3c2)C(=O)N1 (single isomer, unassigned) [Example 94] | > 100 nM
N#CC1([C@H](c2cnn3cc([C@@H](NC(=O)c4nonc4C4CC4)C4CCC(F)(F)CC4)nc3c2)N2CC(F)(F)CNC2=O)CCC1 | < 50 nM
COC[C@H](c1cnn2cc([C@@H](NC(=O)c3nonc3C)C3CCC(F)(F)CC3)nc2c1)N1CC(F)(F)CNC1=O | < 50 nM
CC1CNC(=O)N(Cc2cnn3cc([C@@H](NC(=O)c4nonc4C4CC4)C4CCC(F)(F)CC4)nc3c2)C1 (single isomer, unassigned) [Example 29] | > 100 nM
